Experiment: in vivo
Set-up: species or system Sprague-Dawley rats
Details: Sprague-Dawley, rat, iv, 20 mg/kg
Procedure: Sprague-Dawley rats were randomly divided into three groups and each group contains 6 rats. The prepared micelles solution was injected through femoral vein and the dose was 20 mg/kg (sorafenib) and 30 mg/kg (TG100-115). […] The plasma concentration of sorafenib and TG100-115 was measured using a validated HPLC-MS/MS method. […] Plasma samples are processed according to the standard operating practices described below. […] After that, 150 μL of supernatant was collected for quantitative analysis.
experimental endpoint: half-life (h)
API: value field is a number in h; no unit string.

Reported half-life for CNC(=O)c1cc(Oc2ccc(NC(=O)Nc3ccc(Cl)c(C(F)(F)F)c3)cc2)ccn1 [Sorafenib] : what is it?
8.8

* * *

Assay: in vivo
Design: species or system Sprague-Dawley rats
Settings: Sprague-Dawley, rat, iv, 20 mg/kg
experimental endpoint: clearance (mL/min/kg)
Numbers only here, please. The scale is mL/min/kg.

What clearance value was documented for this compound, CNC(=O)c1cc(Oc2ccc(NC(=O)Nc3ccc(Cl)c(C(F)(F)F)c3)cc2)ccn1 ?
423

* * *

Assay: in vivo
Parameters: species or system Sprague-Dawley rats
Details: Sprague-Dawley, rat, iv, 20 mg/kg
experimental endpoint: AUC(0-t) (ng·h/mL)
Hi! Could you send only the number? It should be in ng·h/mL, unit omitted.

Value lookup for AUC(0-t); key = CNC(=O)c1cc(Oc2ccc(NC(=O)Nc3ccc(Cl)c(C(F)(F)F)c3)cc2)ccn1
74.5

* * *

Experiment: in vivo
Parameters: species or system Sprague-Dawley rats
Settings: Sprague-Dawley, rat, iv, 20 mg/kg
experimental endpoint: Tmax
Answer with the value and then the unit.

I would be grateful if you could share the reported Tmax for CNC(=O)c1cc(Oc2ccc(NC(=O)Nc3ccc(Cl)c(C(F)(F)F)c3)cc2)ccn1 .
10 min
